TEST_DETAILS: Induction of nitric oxide release in 0.1 mM phosphate buffer solution at pH 7.4 assessed as nitrate/nitrite level after 30 mins by Griess assay
Type: physicochemical
RUN_CONDITIONS: pH 7.4, 0.5 h
READOUT_LABEL: Activity (µmol/L)

1) COc1ccc2c(c1OCCO[N+](=O)[O-])COC(C)C2=O (stereo not drawn); 1.78
2) COc1cc2c(cc1OCCCCO[N+](=O)[O-])C(=O)C(C)OC2 (stereo not drawn); 4.83
3) COc1cc2c(cc1OCC(=O)OCCCCO[N+](=O)[O-])COC(C)C2=O (stereo not drawn); 7.45

###

TEST_DETAILS: Induction of nitric oxide release in 0.1 mM phosphate buffer solution at pH 7.4 assessed as nitrate/nitrite level after 120 mins by Griess assay
Type: physicochemical
RUN_CONDITIONS: pH 7.4, 2 h
READOUT_LABEL: Activity

1. COc1cc2c(cc1OCCCCO[N+](=O)[O-])COC(C)C2=O (centres undefined); 8.68 µmol/L
2. COc1ccc2c(c1OCC(=O)OCCO[N+](=O)[O-])COC(C)C2=O (centres undefined); 13.27 µmol/L
3. COc1cc2c(cc1OCC(=O)OCCO[N+](=O)[O-])COC(C)C2=O (centres undefined); 12.94 µmol/L
4. COc1ccc2c(c1OCCCO[N+](=O)[O-])COC(C)C2=O (centres undefined); 9.43 µmol/L

###

TEST_DETAILS: Induction of nitric oxide release in 0.1 mM phosphate buffer solution at pH 7.4 assessed as nitrate/nitrite level after 100 mins by Griess assay
Type: physicochemical
RUN_CONDITIONS: pH 7.4, 100 min
Recorded measurements of Activity, one per entry
READOUT_LABEL: Activity

1. COc1ccc2c(c1OCC(=O)OCCO[N+](=O)[O-])COC(C)C2=O (stereo not given); 13.35 µmol/L
2. COc1cc2c(cc1OCC(=O)OCCCCO[N+](=O)[O-])C(=O)C(C)OC2 (stereo not given); 8.9 µmol/L
3. COc1cc2c(cc1OCC(=O)OCCO[N+](=O)[O-])C(=O)C(C)OC2 (stereo not given); 12.09 µmol/L
4. COc1cc2c(cc1OCCO[N+](=O)[O-])COC(C)C2=O (stereo not given); 12.09 µmol/L
5. COc1cc2c(cc1OCCO[N+](=O)[O-])C(=O)C(C)OC2 (stereo not given); 7.56 µmol/L

###

Recorded measurements of Activity, one per entry
TEST_DETAILS: Induction of nitric oxide release in 0.1 mM phosphate buffer solution at pH 7.4 assessed as nitrate/nitrite level after 10 mins by Griess assay
Assay type: physicochemical
RUN_CONDITIONS: pH 7.4, 10 min
READOUT_LABEL: Activity (µmol/L)

1) COc1ccc2c(c1OCC(=O)OCCCCO[N+](=O)[O-])COC(C)C2=O (stereo unspecified); 4.05
2) COc1cc2c(cc1OCCCCO[N+](=O)[O-])COC(C)C2=O (stereo unspecified); 4.81
3) COc1cc2c(cc1OCCCCO[N+](=O)[O-])C(=O)C(C)OC2 (stereo unspecified); 4.81
4) COc1cc2c(cc1OCCCO[N+](=O)[O-])C(=O)C(C)OC2 (stereo unspecified); 5.14
5) COc1cc2c(cc1OCC(=O)OCCO[N+](=O)[O-])COC(C)C2=O (stereo unspecified); 6.66
6) COc1cc2c(cc1OCCO[N+](=O)[O-])C(=O)C(C)OC2 (stereo unspecified); 5.56

Taken from ChEMBL document CHEMBL2203180.
